systemTested: EGFR (human) (UniProt P00533)
Sequence (P00533 whole entry, looked up): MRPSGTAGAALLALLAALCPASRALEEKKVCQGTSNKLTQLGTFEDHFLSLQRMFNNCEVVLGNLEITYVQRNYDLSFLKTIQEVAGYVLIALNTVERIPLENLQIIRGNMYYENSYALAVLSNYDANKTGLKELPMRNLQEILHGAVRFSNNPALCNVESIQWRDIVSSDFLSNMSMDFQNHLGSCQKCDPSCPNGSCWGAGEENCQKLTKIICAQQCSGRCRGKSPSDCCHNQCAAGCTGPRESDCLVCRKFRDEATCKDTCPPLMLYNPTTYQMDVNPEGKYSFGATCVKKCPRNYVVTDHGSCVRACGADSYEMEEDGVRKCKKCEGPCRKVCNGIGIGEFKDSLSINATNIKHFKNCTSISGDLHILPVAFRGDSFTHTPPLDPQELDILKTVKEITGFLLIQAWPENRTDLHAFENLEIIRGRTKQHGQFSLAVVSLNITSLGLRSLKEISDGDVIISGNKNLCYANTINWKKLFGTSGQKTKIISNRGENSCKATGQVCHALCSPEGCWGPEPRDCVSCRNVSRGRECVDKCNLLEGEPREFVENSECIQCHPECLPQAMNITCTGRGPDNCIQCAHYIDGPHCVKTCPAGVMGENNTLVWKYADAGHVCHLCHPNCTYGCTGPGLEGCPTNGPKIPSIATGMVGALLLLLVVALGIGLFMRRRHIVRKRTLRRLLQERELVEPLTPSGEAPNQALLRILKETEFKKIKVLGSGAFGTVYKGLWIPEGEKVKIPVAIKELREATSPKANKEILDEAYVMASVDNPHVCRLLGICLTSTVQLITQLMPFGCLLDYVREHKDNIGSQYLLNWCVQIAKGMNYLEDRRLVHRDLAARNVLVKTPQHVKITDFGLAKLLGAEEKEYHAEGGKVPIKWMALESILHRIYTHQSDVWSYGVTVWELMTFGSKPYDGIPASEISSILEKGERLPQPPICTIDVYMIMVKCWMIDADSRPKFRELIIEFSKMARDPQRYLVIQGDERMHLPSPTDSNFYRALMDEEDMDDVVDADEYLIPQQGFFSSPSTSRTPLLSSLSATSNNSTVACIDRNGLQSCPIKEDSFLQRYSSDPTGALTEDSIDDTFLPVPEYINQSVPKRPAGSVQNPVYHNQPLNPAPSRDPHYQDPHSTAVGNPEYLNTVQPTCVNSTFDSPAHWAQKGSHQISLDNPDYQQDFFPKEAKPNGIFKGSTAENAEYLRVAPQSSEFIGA
pIC50: −log10 of the molar value.
reportedMetric: pIC50

Field: pIC50 (EGFR (human) (UniProt P00533)). Entry: `CNc1cc2ncnc(Nc3cccc(Br)c3)c2cc1N` 5.36 to 6.00

====

systemTested: EGFR (UniProt P00533)
Sequence (P00533 whole entry, looked up): as above
testMethodNotes: Inhibition of EGFr Enzyme
reportedMetric: pIC50
To interpret pIC50, take it as minus log10 of a concentration measured in moles per litre.

Guide cases for pIC50, answers given:
{"columns": ["substanceSmiles", "systemTested", "result"],
 "data": [
  ["CN(C)c1cc2ncnc(Nc3cccc(Br)c3)c2cn1", "EGFR (UniProt P00533)", 10.05],
  ["CNc1cc2ncnc(Nc3cccc(Br)c3)c2cn1", "EGFR (UniProt P00533)", 9.89]
]}

Requested read-out: pIC50. Entry: `Cc1cccc(Nc2ncnc3cc(NCCCN4CCCCC4)ncc23)c1` 8.25

Value source: the Kinase Knowledgebase extract (Sharma et al. 2016)
